This collection of values is drawn from patent US20230114728A1.

# Tested on: N. gonorrhoeae WHO K
# ASSAY_PROTOCOL: Liquid broth MIC in Fastidious broth
# Assay type: cell-based
# DETAILS: Neisseria gonorrhoeae, read-out: Minimum Inhibitory Concentration, N. gonorrhoeae WHO K
RESULT_TYPE: MIC

Example entries and their recorded answers appear below.
- COMPOUND: "NCCN1CCN(C(=O)N[C@H](C(=O)N[C@H]2Cc3cccc(C(=O)O)c3OB2O)c2ccc(O)c(Cl)c2F)C(=O)C1=O (single isomer, unassigned)"
  MIC: "> 64 µg/mL"
- COMPOUND: "NCCN1CCN(C(=O)N[C@@H](C(=O)N[C@H]2Cc3ccc(F)c(C(=O)O)c3OB2O)c2c(F)cc(O)c(O)c2F)C(=O)C1=O (single isomer, unassigned)"
  MIC: "> 64 µg/mL"

// below: MIC requested for another compound
IN: Fill in the blank: the reported MIC of CCN1CCN(C(=O)NC(C(=O)N[C@H]2Cc3ccc(OCCN)c(C(=O)O)c3OB2O)c2ccccc2)C(=O)C1=O (stereo partly drawn) is ____.
OUT: > 64 µg/mL
